Tested on: FGF-2-mediated ERK phosphorylation in H510 cells
Assay info: FGF-2-induced ERK phosphorylation in H510 cells, Western blot for biphospho-ERK
Format: cell-based
Condition set: dose range of inhibitor 1 h, then FGF-2 0.1 ng/ml 5 min
Description: (B) Representative blots from (A) were quantified by optical densitometry normalised for actin. (C) H69 cells transfected with empty (V) or a wt-PKCε-GFP expressing vector (a) were analysed for phospho-ERK, XIAP and Bcl-XL levels. (D) Baseline level cell death in V-H69 and ε-H69 cells growing in 10% FCS was determined by flow cytometry using Annexin V staining. (E) ε-H69 and V-H69 cells in SFM were treated with or without 0.1 μM etoposide (VP-16) and cell numbers determined 96 h later. […]
Experimental readout: inhibition of FGF-2-mediated ERK phosphorylation

[[record]]
molecule = "CC(=O)c1c(O)c(C)c(O)c(Cc2c(O)c3c(c(C(=O)/C=C/c4ccccc4)c2O)OC(C)(C)C=C3)c1O"
value = "inhibited"

[[record]]
molecule = "CN(C)CCCn1cc(C2=C(c3c[nH]c4ccccc34)C(=O)NC2=O)c2ccccc21 [GF109203X]"
value = "inhibited"

